# Test system: TNFα
# protocol: cells
# Type: cell-based, human
# condition: Homo sapiens, Monocyte, LPS-stimulated human monocytes, TNFα content; read-out: EC50 TNF
Overview of recorded EC50 for various compounds
Form entry: value (nM) — number only.

Worked examples follow.
In [3]: df
Out[3]:
                            smiles_notation  measure  number
0  CC(C)(O)[C@H](F)CNC(=O)c1cnc(-c2ccc3cc(C#N)cnn23)cc1Nc1nccs1     EC50     110
1  CC(C)(O)[C@H](F)CNC(=O)c1cnc(-c2ccc3cc(C#N)cnn23)cc1Nc1ccc(-c2cc[nH]n2)cc1     EC50      29
2  CC(C)(O)[C@H](F)CNC(=O)c1cnc(-c2ccc3cc(C#N)cnn23)cc1NC12CCC(C(=O)N3CC(F)C3)(CC1)CC2     EC50      21
3  CC(=O)N[C@@H]1CCC[C@H](Nc2cc(-c3ccc4cc(C#N)cnn34)ncc2C(=O)NC[C@@H](F)C(C)(C)O)C1     EC50     122
4  COC(=O)N1CC[C@H](CNC(=O)c2cnc(-c3ccc4cc(C#N)cnn34)cc2NC23CCC(O)(CC2)CC3)C1     EC50     124

--- query ---
Query EC50 for "CC(C)(O)[C@H](F)CNC(=O)c1cnc(-c2ccc3cc(C#N)cnn23)cc1Nc1ccc2c(c1)C1(CC1)C(=O)N2"
299

----------
# Test system: TNFα
# protocol: cells
# Type: cell-based, human
# condition: Homo sapiens, Monocyte, LPS-stimulated human monocytes, TNFα content; read-out: EC50 TNF
pEC50: −log10 of the molar value.
The label depends only on pEC50: Satisfied if it is at least 7, Not satisfied if it is smaller.

See these solved cases before continuing.
In [3]: df
Out[3]:
                                   compound  target_of_assay  group_label
0  CC(C)(O)[C@H](F)CNC(=O)c1cnc(-c2ccc3cc(C#N)cnn23)cc1N[C@H]1C[C@H](CNC(=O)C(F)(F)F)C1 [Example 542]             TNFα    Satisfied
1  CC(C)(O)[C@H](F)CNC(=O)c1cnc(-c2ccc3cc(C#N)cnn23)cc1Nc1ccc(-c2nc[nH]n2)cc1 [Example 175]             TNFα    Satisfied

Given CC(=O)N[C@H]1C[C@H](NC(=O)c2cnc(-c3ccc4cc(C#N)cnn34)cc2NC(C)C)C1 [Example 124] , state whether its pEC50 is at least 7.
Not satisfied

pEC50 >= 7 for CNC(=O)OC[C@@H]1C[C@H]1Nc1cc(-c2ccc3cc(C#N)cnn23)ncc1C(=O)NC[C@@H](F)C(C)(C)O [Example 747] ?
Not satisfied

# check: pEC50 of COC(=O)NC12CCC(Nc3cc(-c4ccc5cc(C#N)cnn45)ncc3C(=O)NC3CCC(NC(=O)N4CCOCC4)CC3)(CC1)CC2 (stereo not shown) [Example 270] is greater than or equal to 7
Satisfied

----------
Readings of IC50 for the listed compounds
# target-of-assay: IRAK4 enzyme (Homo sapiens (Human), UniProt Q9NWZ3)
# Sequence (Q9NWZ3 whole entry): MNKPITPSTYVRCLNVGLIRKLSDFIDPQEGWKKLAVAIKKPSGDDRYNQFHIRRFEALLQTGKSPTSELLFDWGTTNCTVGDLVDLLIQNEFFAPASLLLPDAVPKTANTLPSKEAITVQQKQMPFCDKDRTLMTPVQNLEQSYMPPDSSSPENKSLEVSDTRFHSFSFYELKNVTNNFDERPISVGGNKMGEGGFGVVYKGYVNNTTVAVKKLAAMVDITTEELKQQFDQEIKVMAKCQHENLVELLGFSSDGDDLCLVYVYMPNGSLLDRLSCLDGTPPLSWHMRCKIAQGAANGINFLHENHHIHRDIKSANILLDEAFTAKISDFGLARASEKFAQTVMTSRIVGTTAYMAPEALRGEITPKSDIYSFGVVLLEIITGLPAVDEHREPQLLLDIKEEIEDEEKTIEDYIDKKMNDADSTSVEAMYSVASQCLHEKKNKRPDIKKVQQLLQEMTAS
# protocol: biochemical
# Assay type: biochemical
# condition: IRAK4 enzyme, TR-FRET, 500 μM ATP
# value in nM; strip the unit string

Give a short answer stating reported IC50 for COC(=O)N1CCC2(CC(Nc3cc(-c4ccc5cc(C#N)cnn45)ncc3C(=O)NC[C@@H](F)C(C)(C)O)C2)C1 (stereo partly shown) [Example 903] .
1

Quote IC50 reported for CN1CCOc2cc(Nc3cc(-c4ccc5cc(C#N)cnn45)ncc3C(=O)N[C@H]3CC[C@H](NC(=O)N4CCOCC4)CC3)ccc21 [Example 860] please.
2

Please give measured IC50 of the following entry: CC(C)(O)[C@H](F)CNC(=O)c1cnc(-c2ccc3cc(C#N)cnn23)cc1N[C@H]1CCN(C2COC2)C1 [Example 110]
4

Complete the entry with IC50 for CC(C)(O)[C@H](F)CNC(=O)c1cnc(-c2ccc3cc(C#N)cnn23)cc1NC12CCC(NC(=O)C3CC3)(CC1)CC2 [Example 281]
1

Please supply the value of reported IC50 for the item CC(=O)N1CC[C@@H]1CNc1cc(-c2ccc3cc(C#N)cnn23)ncc1C(=O)NC[C@@H](F)C(C)(C)O [Example 892]
3
